Molecular target: IRAK4 (Homo sapiens, UniProt Q9NWZ3)
Sequence (Q9NWZ3 whole entry, species assumed): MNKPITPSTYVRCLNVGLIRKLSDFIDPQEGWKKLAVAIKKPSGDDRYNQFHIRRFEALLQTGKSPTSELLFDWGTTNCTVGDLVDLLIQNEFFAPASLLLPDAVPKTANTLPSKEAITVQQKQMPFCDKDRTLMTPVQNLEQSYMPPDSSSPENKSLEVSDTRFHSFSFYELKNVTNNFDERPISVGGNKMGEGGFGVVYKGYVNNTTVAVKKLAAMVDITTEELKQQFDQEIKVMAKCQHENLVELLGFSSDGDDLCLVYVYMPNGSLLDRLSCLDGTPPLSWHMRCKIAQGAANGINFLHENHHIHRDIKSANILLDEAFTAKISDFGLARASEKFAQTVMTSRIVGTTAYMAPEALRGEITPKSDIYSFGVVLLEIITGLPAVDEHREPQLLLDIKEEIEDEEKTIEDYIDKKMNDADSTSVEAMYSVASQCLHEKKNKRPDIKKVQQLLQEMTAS
Experiment: Hibit fluorescence detection of proteolysis (IRAK4-HiBiT in HEK293T cells)
Type: cell-based
Parameters: host or cells: HEK293T (ATCC)
Settings: IRAK4-HiBiT, HEK293T cells, 24 h
Listed next: entries and their corresponding DC50.

COMPOUND	DC50
Cn1c(=O)n(C2CCC(=O)NC2=O)c2cccc(N3CC4CCC(C3)N4C[C@H]3CC[C@H](n4cc(-n5cc(-c6cnn7ccc(N8CCOCC8)nc67)nn5)c(C(F)F)n4)CC3)c21 (stereo partly drawn)	1 to 5 nM
Cn1c(=O)n(C2CCC(=O)NC2=O)c2cccc(N3CCC4(CCN(C[C@H]5CC[C@H](n6cc(-n7cc(-c8cnn9ccc(N%10CCOCC%10)nc89)nn7)c(C(F)F)n6)CC5)CC4)CC3)c21 (stereo partly drawn)	< 0.5 nM
Cn1c(=O)n(C2CCC(=O)NC2=O)c2cccc(CN3CC4(CCC(CN[C@H]5CC[C@H](n6cc(-n7cc(-c8ccc9cc(C(N)=O)cnn89)nn7)c(C(F)F)n6)CC5)CC4)C3)c21 (stereo partly drawn)	1 to 5 nM
Cn1c(=O)n(C2CCC(=O)NC2=O)c2cccc(N3CCN(C4CCN(C[C@H]5CC[C@H](n6cc(-n7cc(-c8cnn9ccc(N%10CCC[C@H](O)C%10)nc89)nn7)c(C(F)F)n6)CC5)CC4)CC3)c21 (stereo partly drawn)	< 0.5 nM
Cn1c(=O)n(C2CCC(=O)NC2=O)c2cccc(N3CCC(N4CCN(C[C@H]5CC[C@H](n6cc(-n7cc(-c8cnn9ccc(N[C@H]%10CCCC[C@H]%10O)nc89)nn7)c(C(F)F)n6)CC5)CC4)CC3)c21 (stereo partly drawn)	< 0.5 nM
Cn1c(=O)n(C2CCC(=O)NC2=O)c2cccc(N3CCC(N4CCN(C[C@H]5CC[C@H](n6cc(-n7cc(-c8cnn9ccc(N%10CCC(O)CC%10)nc89)nn7)c(C(F)F)n6)CC5)CC4)CC3)c21 (stereo partly drawn)	< 0.5 nM
